- Target or system: Tyrosine-protein kinase JAK1 (Homo sapiens)
- Sequence (P23458 whole entry): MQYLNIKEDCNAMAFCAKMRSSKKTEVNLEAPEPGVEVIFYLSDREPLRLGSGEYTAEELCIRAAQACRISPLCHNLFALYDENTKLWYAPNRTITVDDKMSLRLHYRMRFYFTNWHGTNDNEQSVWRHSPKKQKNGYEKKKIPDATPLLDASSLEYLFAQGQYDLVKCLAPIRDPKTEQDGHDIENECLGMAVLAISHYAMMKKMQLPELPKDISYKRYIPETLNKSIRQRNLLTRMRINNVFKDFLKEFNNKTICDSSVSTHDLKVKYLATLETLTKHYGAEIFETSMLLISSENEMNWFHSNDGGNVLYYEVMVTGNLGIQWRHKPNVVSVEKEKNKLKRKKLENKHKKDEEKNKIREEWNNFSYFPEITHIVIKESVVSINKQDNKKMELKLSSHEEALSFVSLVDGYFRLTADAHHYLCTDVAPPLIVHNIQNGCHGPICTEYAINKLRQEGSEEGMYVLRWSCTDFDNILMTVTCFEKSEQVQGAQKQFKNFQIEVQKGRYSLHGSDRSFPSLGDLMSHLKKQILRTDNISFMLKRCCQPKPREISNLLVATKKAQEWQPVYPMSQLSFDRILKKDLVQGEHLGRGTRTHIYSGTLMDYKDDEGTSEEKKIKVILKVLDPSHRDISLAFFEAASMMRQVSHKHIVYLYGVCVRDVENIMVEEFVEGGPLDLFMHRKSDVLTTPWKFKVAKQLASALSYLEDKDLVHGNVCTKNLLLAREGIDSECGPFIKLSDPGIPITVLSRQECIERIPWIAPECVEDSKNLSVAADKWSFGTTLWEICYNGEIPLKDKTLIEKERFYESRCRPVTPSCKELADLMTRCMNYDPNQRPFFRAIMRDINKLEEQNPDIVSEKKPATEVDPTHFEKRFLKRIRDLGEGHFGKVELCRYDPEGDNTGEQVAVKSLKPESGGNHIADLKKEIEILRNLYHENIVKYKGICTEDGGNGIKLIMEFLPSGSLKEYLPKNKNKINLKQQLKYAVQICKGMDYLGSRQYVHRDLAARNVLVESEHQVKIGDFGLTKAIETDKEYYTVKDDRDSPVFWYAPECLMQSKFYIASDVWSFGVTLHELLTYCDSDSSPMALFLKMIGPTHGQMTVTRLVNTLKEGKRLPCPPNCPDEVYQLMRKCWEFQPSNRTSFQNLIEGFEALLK
- Experiment: HTRF Biochemical Assay
- Condition parameters: 25 °C
Experimental endpoint: IC50 (nM)

{"columns": ["Compound", "Recorded measurement"],
 "data": [
  ["Cc1cc(F)c(Nc2ccnc3c2C(=O)Nc2cc(CN4CC[C@@H](N)C4)ccc2N3)cc1O [US9328099, 29-A]", 1]
]}
